Origin of the recorded values: ChEMBL document CHEMBL5252666

What Emax was measured for each of the following?
# TARGET_ENTITY: UniProt Q14831
# ASSAY_TEXT: Agonist activity at human mGluR7 expressed in CHO cells expressing CRE-Luc reporter gene assessed as reduction in forskolin-stimulated cAMP production by measuring maximum efficacy preincubated for 15 mins followed by forskolin stimulation and measured after 5 hrs by luminescence based Steady glo assay relative to control
# Assay type: cell-based
# CONDITION_SUMMARY: filed as agonist, time 315.0 min
Answer by giving the amount and then stating its unit.

Recorded Emax for C[C@H](C(=O)N[C@H]1COc2ccccc2[C@@H]1S(C)(=O)=O)c1ccc(F)cc1 , please?
97%

Queued: C[C@H](C(=O)NC1Cc2ccccc2C1)c1ccc(F)cc1
96%

Same read-out for C[C@H](C(=O)N[C@@H]1CCc2ccccc2[C@H]1S(C)(=O)=O)c1ccc(F)cc1 ?
95%

Then C[C@@H](C(=O)NC1Cc2ccccc2C1)c1ccccc1 ?
69%

Same again, this time with C[C@H](C(=O)NC1Cc2ccccc2C1)c1ccccc1
95%

Now give it for O=C(Cc1ccc(Cl)cc1)NC1Cc2ccccc2C1 too.
71%

----------
# TARGET_ENTITY: Metabotropic glutamate receptor 7 (Homo sapiens)
# Sequence (Q14831 whole entry): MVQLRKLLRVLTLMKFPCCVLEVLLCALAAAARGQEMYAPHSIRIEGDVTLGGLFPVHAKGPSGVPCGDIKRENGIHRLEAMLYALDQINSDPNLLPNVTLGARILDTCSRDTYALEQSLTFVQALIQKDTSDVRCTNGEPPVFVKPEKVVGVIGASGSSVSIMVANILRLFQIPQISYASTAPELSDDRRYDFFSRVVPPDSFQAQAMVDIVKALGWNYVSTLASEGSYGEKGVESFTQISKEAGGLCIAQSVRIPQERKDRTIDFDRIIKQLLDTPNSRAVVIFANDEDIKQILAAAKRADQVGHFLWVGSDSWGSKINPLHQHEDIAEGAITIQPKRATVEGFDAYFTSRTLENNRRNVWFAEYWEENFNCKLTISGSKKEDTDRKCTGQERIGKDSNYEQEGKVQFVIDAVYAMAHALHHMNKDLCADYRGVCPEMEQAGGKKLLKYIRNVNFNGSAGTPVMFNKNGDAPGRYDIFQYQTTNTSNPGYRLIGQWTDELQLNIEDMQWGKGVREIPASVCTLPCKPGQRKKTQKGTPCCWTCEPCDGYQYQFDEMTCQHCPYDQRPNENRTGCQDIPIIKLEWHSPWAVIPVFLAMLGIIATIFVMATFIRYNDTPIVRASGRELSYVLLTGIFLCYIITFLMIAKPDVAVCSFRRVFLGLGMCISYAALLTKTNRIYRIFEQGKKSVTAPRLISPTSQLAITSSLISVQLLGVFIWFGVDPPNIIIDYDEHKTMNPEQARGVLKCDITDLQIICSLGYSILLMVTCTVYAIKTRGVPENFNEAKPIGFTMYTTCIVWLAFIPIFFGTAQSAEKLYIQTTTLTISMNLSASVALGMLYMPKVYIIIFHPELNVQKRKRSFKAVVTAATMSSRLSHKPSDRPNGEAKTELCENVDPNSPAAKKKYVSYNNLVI
# ASSAY_TEXT: Agonist activity at human mGluR7b expressed in CHO cells assessed as inhibition of forskolin-stimulated cAMP accumulation
# Type: cell-based
Hi there, I'd appreciate the recorded pEC50 for every entry that follows.
Quick note: pEC50 means taking -log10 of the concentration in moles per liter.

Quick one: pEC50 of CNC[C@@H](OCC(=O)N1CCCc2ccccc21)c1ccccc1 ?
6.96

Please do the same for c1ccc(C(NCCNC(c2ccccc2)c2ccccc2)c2ccccc2)cc1 as well.
7.19

----------
# TARGET_ENTITY: Metabotropic glutamate receptor 7 (Mus musculus)
# Sequence (Q68ED2 whole entry): as the sequence (Q14831 whole entry) above, with R5G, A27V, S488T, A520P, D578N counted along it
# ASSAY_TEXT: Agonist activity at mouse mGluR7 expressed in CHO cells expressing CRE-Luc reporter gene assessed as reduction in forskolin-stimulated cAMP production preincubated for 15 mins followed by forskolin stimulation and measured after 5 hrs by luminescence based Steady glo assay
READOUT_NAME: EC50 (nM)
State the answer as a number, implicitly in nM.

API: value(readout=EC50, system=Metabotropic glutamate receptor 7 (Mus musculus)) for record C[C@H](C(=O)N[C@H]1COc2ccccc2[C@@H]1S(C)(=O)=O)c1ccc(F)cc1
2

----------
# ASSAY_TEXT: Cmax in Sprague-Dawley rat at 3 mg/kg, po measured after 24 hrs by LC-MS/MS analysis
# Type: ADME, organism-based
# Set-up: dose 3 mg/kg, time 24 hrs, route po
# CONDITION_SUMMARY: in vivo
READOUT_NAME: Cmax

Look up Cmax: C[C@H](C(=O)N[C@H]1COc2ccccc2[C@@H]1S(C)(=O)=O)c1ccc(F)cc1
1240 nM

----------
# ASSAY_TEXT: Stability in rat liver microsomes assessed as intrinsic clearance preincubated for 60 mins followed by NADPH addition and measured upto 60 mins by LC-MS/MS analysis
# Type: ADME, Microsome
# CONDITION_SUMMARY: time < 120 min, read-out: CLH
READOUT_NAME: microsomal CLint (µL/min/mg)
Provide the reading as a plain figure in µL/min/mg.

Which value of microsomal CLint has been reported for C[C@H](C(=O)N[C@@H]1CCc2ccccc2[C@H]1S(C)(=O)=O)c1ccc(F)cc1 in the records?
55
